- test-summary: qHTS assay for identifying genotoxic compounds that show differential cytotoxicity against isogenic chicken DT40 cell lines with known DNA damage response pathways - wild type cell line (AID 743012); further: nearly all actives have a fitted effect of over 60% in size
- recorded-conditions: DT40 wild type chicken cells viability, CellTiter-Glo, 40 h; series mostly up to 68.4 µM
Records with an inconclusive call do not appear. Activity calls are given as the source filed them. The call rests on the fitted dose curve; in most records, active means well fitted cell-killing curve with a large enough effect in the repeat runs; inconclusive means weak or mixed curves, or effect the other way; inactive means no such curve, though single readings can be large or run the other way.
// one of active, inactive, no free text

Some entries whose results are on file:
> print(dat)
                                   compound  label.class
1              CCCCCCOC(=O)CCCCC(=O)OCCCCCC     inactive
2       O=C(O)CNC(=O)c1ccc([N+](=O)[O-])cc1     inactive
3                         CCCCCCCCCCCCCCCCC     inactive
4  Nc1c2c(nc3ccccc13)CCCC2O (stereo not drawn)     inactive
5       CCn1nc(C(=O)O)c(=O)c2cc3c(cc21)OCO3     inactive
6                            O=C1CCCC(=O)C1     inactive

Assay outcome for NC(=O)c1cn(Cc2c(F)cccc2F)nn1 : what was it?
inactive

What do we get for OC1CCCCC1c1ccccc1 (stereo not drawn) ?
inactive

Now try CC(C)OC(=O)c1ccccc1 .
inactive

Entry to check: NC(=O)COCCN1CCN(C(c2ccccc2)c2ccc(Cl)cc2)CC1 (stereo not drawn)
active

Also O=C1CC2CC1C1CCCC21 (stereo not drawn) ?
inactive

* * *

- measured-on: Aryl hydrocarbon receptor (Homo sapiens) (UniProt P35869)
- Sequence (P35869 whole entry, looked up): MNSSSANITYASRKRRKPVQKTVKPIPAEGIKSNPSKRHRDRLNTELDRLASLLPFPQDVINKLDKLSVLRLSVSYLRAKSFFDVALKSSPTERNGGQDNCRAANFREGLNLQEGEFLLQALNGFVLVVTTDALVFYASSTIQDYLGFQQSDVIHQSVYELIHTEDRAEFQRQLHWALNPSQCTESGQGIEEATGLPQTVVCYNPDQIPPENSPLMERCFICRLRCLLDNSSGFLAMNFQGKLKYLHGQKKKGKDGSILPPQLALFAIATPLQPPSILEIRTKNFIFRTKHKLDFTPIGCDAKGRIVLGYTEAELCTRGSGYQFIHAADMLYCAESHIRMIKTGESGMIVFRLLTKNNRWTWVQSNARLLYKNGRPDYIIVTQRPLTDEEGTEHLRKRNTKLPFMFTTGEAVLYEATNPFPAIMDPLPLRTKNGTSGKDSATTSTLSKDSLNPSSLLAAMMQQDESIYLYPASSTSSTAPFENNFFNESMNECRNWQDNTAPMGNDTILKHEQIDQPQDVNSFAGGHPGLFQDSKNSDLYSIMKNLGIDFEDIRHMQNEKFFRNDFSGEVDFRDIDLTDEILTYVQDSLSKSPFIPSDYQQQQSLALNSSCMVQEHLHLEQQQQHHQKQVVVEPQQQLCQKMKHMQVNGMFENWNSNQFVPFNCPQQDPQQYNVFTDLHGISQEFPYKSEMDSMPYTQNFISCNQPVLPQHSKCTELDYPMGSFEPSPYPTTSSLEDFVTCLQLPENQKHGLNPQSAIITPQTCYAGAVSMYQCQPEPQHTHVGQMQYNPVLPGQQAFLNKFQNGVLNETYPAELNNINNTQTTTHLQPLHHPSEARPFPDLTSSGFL
- test-summary: qHTS assay to identify small molecule that activate the aryl hydrocarbon receptor (AhR) signaling pathway (AID 743085); further: nearly all actives have a fitted effect of over 15% in size;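 on activation: HG2L7.5c1 human HepG2 liver cells with stably integrated DRE-driven firefly reporter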
- recorded-conditions: HepG2 AhR-luc (HG2L7.5c1), luciferase, 24 h; series mostly up to 70.3 µM
- Description: U.S. Tox21 Program National Center for Advancing Translational Sciences [NCATS] NIH Chemical Genomics Center [NCGC] U.S. Environmental Protection Agency [EPA] National Institutes of Environmental Health Sciences [NIEHS] National Toxicology Program [NTP] U.S. Food and Drug Administration [FDA] Tox21 Assay overview: The Aryl hydrocarbon Receptor (AhR), a member of the family of basic helix-loop-helix transcription factors, is crucial to adaptive responses to environmental changes. […]
Inconclusive results are not listed. The source made the active and inactive calls. Calls come from the whole dose curve; as a rule, active = well fitted activation curve with a large enough effect in the repeat runs; inconclusive = weak or mixed curves; inactive = no such curve, though single readings can be large or run the other way.
Tick one outcome: True = active, False = inactive

Worked cases, answers included:
> print(dat)
                                    compound  label.class
 1                            O=C1CCCC(=O)C1        False
 2  CCCCC(CC)COC(=O)c1ccccc1O (stereo not drawn)        False
 3      C=COCC1CCC(CO)CC1 (stereo not drawn)        False
 4  CO[C@]12C[C@@H](COC(=O)c3cncc(Br)c3)CN(C)[C@@H]1Cc1cn(C)c3cccc2c13         True
 5   CC1(C)C(O)C(C)(C)C1O (stereo not drawn)        False
 6     CCN(CC)CCNC(=O)c1cc(S(C)(=O)=O)ccc1OC        False
 7                  N=c1nc(N2CCCCC2)cc(N)n1O        False
 8                              CCc1nccnc1CC        False
 9                         CN(C)CCCNCCCN(C)C        False
10              CCOc1ccc(C(=O)OCCN(CC)CC)cc1        False

Test call, this compound: C=CCCCCCCCCC=O
False

Next: COc1cc(C(=O)N2CCCCCCC2)cc(OC)c1OC
False

And then CCCCCCCCCCCC , what is it?
False

Request: CCn1nc(C(=O)O)c(=O)c2cc3c(cc21)OCO3
False

Follow-up item: N=C(N)c1ccc2cc(OC(=O)c3ccc(N=C(N)N)cc3)ccc2c1
False

How about CC(C)(C)NCCNC(C)(C)C ?
False

Please do the same for CC(=O)OCC(=O)[C@@]1(O)CCC2C3CCC4=CC(=O)CC[C@]4(C)C3[C@@H](O)C[C@@]21C (stereo partly drawn) as well.
False

What do we get for Cc1cccn2c(=O)c(-c3nnn[nH]3)cnc12 ?
False

Values were extracted from PubChem BioAssay (Tox21).
